Taken from patent US20220162191A1.

target: UniProt Q16552; experiment: IL-8 release assay in human epithelial keratinocytes adult (HEKa); details: 3 ng/ml human IL-17AA + 10 ng/ml human TNFalpha, 68-72 h, IL-8 by HTRF, read-out: Rel EC50 L-8 release assay
quantity.measured: EC50

As a guide, the following entries are already answered.
Query :: Which EC50 is reported for this molecule? "Cc1n[nH]c(C)c1-c1ccc(NC(=O)[C@H](Cc2cc(-c3ccnc(N4C[C@H]5C[C@@H]4CO5)c3)ccc2Cl)NC(=O)C2(F)CC2)cc1"
Result :: < 100 nM

Query :: Which EC50 is reported for this molecule? "Cc1n[nH]c(C)c1-c1ccc(NC(=O)[C@@H](NC(=O)c2ccnn2C)[C@@H]2CCc3ccc(-c4cnn(CC(C)(C)O)c4)cc32)cc1"
Result :: < 100 nM

Now consider a different molecule.
Query :: Which EC50 is reported for this molecule? Cn1cncc1-c1ccc(NC(=O)C(Cc2cc(-c3ccnc(N4CCCC4)c3)ccc2Cl)NC(=O)c2ccnn2C)cc1 (stereo not drawn)
Result :: 100 to 1000 nM

###

The entries below come with measured EC50 values attached.
Target: human IL-17AA (Homo sapiens, UniProt Q16552)
Sequence (Q16552 24-155) 1: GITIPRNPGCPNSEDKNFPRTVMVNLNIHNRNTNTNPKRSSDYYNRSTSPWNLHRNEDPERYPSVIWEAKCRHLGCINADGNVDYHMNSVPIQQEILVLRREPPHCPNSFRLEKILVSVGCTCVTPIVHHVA
Sequence (Q16552 24-155) 2: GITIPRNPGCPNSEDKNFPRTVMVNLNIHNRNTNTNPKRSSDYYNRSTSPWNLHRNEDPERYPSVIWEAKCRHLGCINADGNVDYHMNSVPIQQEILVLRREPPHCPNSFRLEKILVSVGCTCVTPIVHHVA
Assay: IL-8 release assay in human epithelial keratinocytes adult (HEKa)
Conditions: 3 ng/ml human IL-17AA + 10 ng/ml human TNFalpha, 68-72 h, IL-8 by HTRF, read-out: Rel EC50 L-8 release assay

As a guide, the following entries are already answered.
Query :: Which EC50 is reported for this molecule? Cn1cncc1-c1ccc(NC(=O)C(Cc2cc(-c3ccnc(N4CCOCC4)c3)ccc2Cl)NC(=O)c2ccnn2C)cc1 (stereo not drawn)
Result :: 0.1 to 1 µM

Query :: Which EC50 is reported for this molecule? "Cc1cnn(C)c1-c1ccc(NC(=O)[C@@H](NC(=O)C2(F)CC2)[C@@H]2CCc3ccc(-c4ccnc(N5CC[C@H](O)C5)c4)cc32)cc1"
Result :: 0.1 to 1 µM

Further cases:
Query :: Which EC50 is reported for this molecule? "C[C@@H]1CNCCN1c1cc(-c2ccc(Cl)c(C[C@H](NC(=O)c3ccnn3C)C(=O)Nc3ccc(-c4cncn4C)cc3)c2)ccn1"
Result :: < 0.1 µM

Query :: Which EC50 is reported for this molecule? CC(c1cc(-c2ccc(=O)n(C(C)C)c2)ccc1Cl)C(NC(=O)c1ccnn1C)C(=O)Nc1ccc(-c2cncn2C)cc1 (stereo not drawn)
Result :: > 1 µM

Query :: Which EC50 is reported for this molecule? "Cc1n[nH]c(C)c1-c1ccc(NC(=O)[C@@H](NC(=O)c2ccnn2C)[C@@H]2CCCc3ccc(-c4ccc5c(c4)CNC5)cc32)cc1"
Result :: < 0.1 µM

Query :: Which EC50 is reported for this molecule? "Cc1n[nH]c(C)c1-c1ccc(NC(=O)[C@@H](NC(=O)c2ccnn2C)[C@@H]2CCc3ccc(-c4cnn(C(C)(C)CN)c4)cc32)cc1"
Result :: 0.1 to 1 µM
